molecular target: TRPV3-5PM (Mus musculus, UniProt Q8K424, A606V/F625L/F656I/F666Y/V587L); construct: expressed in transfected cells; host or cells: Xenopus laevis oocytes; type: cell-based; conditions: read-out: apparent affinity (EC50) for activation by 2-APB
Sequence (Q8K424 whole entry V587L/A606V/F625L/F656I/F666Y): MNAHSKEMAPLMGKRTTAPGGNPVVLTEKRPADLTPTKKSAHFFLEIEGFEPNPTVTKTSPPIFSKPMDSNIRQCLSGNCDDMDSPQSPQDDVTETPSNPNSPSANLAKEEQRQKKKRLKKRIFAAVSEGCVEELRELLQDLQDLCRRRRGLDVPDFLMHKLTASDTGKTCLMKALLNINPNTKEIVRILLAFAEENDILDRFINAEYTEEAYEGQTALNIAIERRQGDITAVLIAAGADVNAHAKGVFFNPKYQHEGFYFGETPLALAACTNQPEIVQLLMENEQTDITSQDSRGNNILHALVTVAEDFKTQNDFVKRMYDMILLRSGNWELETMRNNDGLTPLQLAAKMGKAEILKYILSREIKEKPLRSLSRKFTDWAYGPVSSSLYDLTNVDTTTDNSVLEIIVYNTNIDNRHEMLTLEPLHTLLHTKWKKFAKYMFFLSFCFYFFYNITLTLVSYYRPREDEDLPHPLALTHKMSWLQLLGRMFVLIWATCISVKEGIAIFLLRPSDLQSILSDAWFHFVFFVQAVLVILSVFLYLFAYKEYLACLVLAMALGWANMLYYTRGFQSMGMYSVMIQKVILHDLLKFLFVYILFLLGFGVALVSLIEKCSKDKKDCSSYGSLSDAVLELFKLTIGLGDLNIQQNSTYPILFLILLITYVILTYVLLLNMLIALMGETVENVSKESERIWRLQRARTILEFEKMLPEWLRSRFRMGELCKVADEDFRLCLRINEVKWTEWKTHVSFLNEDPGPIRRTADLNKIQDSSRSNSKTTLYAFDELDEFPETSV
Recorded endpoint: EC50 (µM)
Field format: number, assumed µM, no unit text.

Under TRPV3-5PM (Mus musculus, UniProt Q8K424, A606V/F625L/F656I/F666Y/V587L): EC50 value of NCCOB(c1ccccc1)c1ccccc1 [2-APB, 2-aminoethoxydiphenyl borate] ?
19
